test system: UACC-62 melanoma; test: NCI-60 one-dose screen, 48 h; settings: 10 µM unless noted
The panel holds about 83,000 compounds, 20% with a hit somewhere; the sample as a whole holds those more often. The source made the active and inactive calls. How the source made its calls: active means growth percent below 10; inactive means the rest.
Could you please pick one outcome from this set? Y for active, N for inactive

Please indicate how the test categorized CCCCCCCCCCCCNC(=O)[C@H]1CSC(c2cc3ccccc3s2)N1 (stereo not given in full) .
Y

Please indicate how the test categorized C=C1CCC2C3(C)COC(C)(C)OC3CCC2(C)C1C/C=C1/C(=O)OCC1Oc1ccccc1OC (stereo not given) .
N

Please indicate how the test categorized "N#C/C(=C1C=C/C(=N/O)C(Cl)=C/1)c1ccc(Cl)cc1" .
N

Please indicate how the test categorized "Fc1ccccc1-c1nc(-c2nc3cc(Cl)c(Cl)cc3[nH]2)c2ccccn12" .
N

Please indicate how the test categorized NC1=C(/C(N)=N/O)C(c2ccccc2)c2ccc3ccccc3c2O1 (stereo not given) .
N

Please indicate how the test categorized "CCn1c2ccccc2c2cc(NC(=O)Nc3ccc([N+](=O)[O-])cc3C)ccc21" .
N

Please indicate how the test categorized "CCN1CCN(CC(=O)N2c3cccc4cccc(c34)N(C(=O)CN3CCN(CC)CC3)C2c2cn(-c3ccccc3)nc2-c2cccc([N+](=O)[O-])c2)CC1" .
Y

Please indicate how the test categorized "CCCCCCN1CSC(=S)N(CCCCCC)C1" .
N

Please indicate how the test categorized "O=[N+]([O-])c1ccc(OCCCOc2ccccc2)cc1" .
N

Please indicate how the test categorized "CC(C)NCCCNC1=C(Cl)C(=O)c2ccccc2C1=O" .
N

Please indicate how the test categorized "O=C(/C=C/c1cc(-c2ccc3c(c2)OCO3)n[nH]1)c1ccc2c(c1)OCO2" .
N

Please indicate how the test categorized "N#Cc1c(Nc2ccccc2)nc2n(c1=O)-c1ccccc1Sc1ccccc1-2" .
N

Please indicate how the test categorized "Cc1ccc(S(=O)(=O)Nc2c(Br)cc(Br)cc2C(N)=O)cc1" .
N

Please indicate how the test categorized "Cc1ccc(S(=O)(=O)C2=C3C(=C(c4ccccc4)c4ccccc43)CN(S(=O)(=O)c3ccc(C)cc3)C2)cc1" .
N

Please indicate how the test categorized COc1cc(C2CC(c3ccc4c(c3)OCO4)=NN2C(C)=O)cc(OC)c1OC (stereo not given) .
N

Please indicate how the test categorized "C=C[C@@H]1C[C@@H]2Cc3c(C)cc(C)cc3N1O2" .
N

Please indicate how the test categorized "O=c1[nH]c(NCc2ccccc2)nc2nc(Nc3ccc(NC(=S)Nc4ccccc4)cc3)nc(-c3ccc(O)cc3O)c12" .
N

Please indicate how the test categorized "O=C(Nc1ccncc1)C(=O)c1cn(S(=O)(=O)c2ccc(Cl)cc2)c2ccccc12" .
N

Please indicate how the test categorized "Cc1ccc(-c2nc(C(Cl)Cl)n3nc(-c4ccccc4)cc3n2)cc1" .
Y

Please indicate how the test categorized Cc1[nH]c2ccc(F)cc2c1CCNC(=O)C1CCN(C(=O)c2ccccc2)C1 (stereo not given) .
N
